System: Microsporum canis
Experimental details: Antifungal activity in vitro, resazurin growth inhibition screen: Microsporum canis
Format: cell-based
Condition set: Microsporum canis B68128
Quick rule: Inf. B pIC50 of at least 5 means true, below that means false.

Compound	Label
Cl.Clc1cc(Cl)c2c(c1)-n1cccc1C(c1ccc3c(c1)CCC3)NC2 (stereo not drawn)	true
Cl.Clc1cccc2c1CNC(c1ccc3c(c1)CCOC3)c1cccn1-2 (stereo not drawn)	true
Br.c1ccc2c(c1)CNC(c1ccc3c(c1)OCO3)c1cccn1-2 (stereo not drawn)	false
FC1(F)CCc2cc(C3=NCc4cccc(Cl)c4-n4cccc43)ccc21	false
Clc1ccc2c(c1)-n1cccc1C(c1ccc3c(c1)CCOC3)=NC2	false
Cl.Clc1ccc2c(c1Cl)CNC(c1ccc3c(c1)CCO3)c1cccn1-2 (stereo not drawn)	true

Query :: Decide: is the reported value of Inf. B pIC50 for Clc1cccc2c1-n1cccc1C(c1ccc3c(c1)CCOC3)=NC2 equal to or greater than 5?
Result :: true

* * *

Tested on: Sporothrix schenkii
Experimental details: Antifungal activity in vitro, resazurin growth inhibition screen: Sporothrix schenkii
Format: cell-based
Condition set: Sporothrix schenkii B62482
Metric name: Inf. A pIC50
Format: numeric value only, no unit, no commentary.

Input smiles	System name	Inf. A pIC50
CN1CCc2cc(C3=NCc4c(F)cccc4-n4cccc43)ccc21	Sporothrix schenkii	4.49

The reported Inf. A pIC50 of the compound FC1(F)CCc2cc(C3=NCc4ccc(Cl)cc4-n4cccc43)ccc21 was 5.10

Inf. A pIC50 measured on Clc1ccc2c(c1)-n1cccc1C(c1ccc3c(c1)CCCO3)=NC2 = 5.10

* * *

Test system: Trichophyton mentagrophytes
Experimental details: Antifungal activity in vitro, resazurin growth inhibition screen: Trichophyton mentagrophytes
Type: cell-based
Condition set: Trichophyton mentagrophytes B70554; read-out: Inf. G pIC50 (converted)
Protocol: The standard susceptibility screen was performed in 96-well plates (U-bottom, Greiner Bio-One). Serial dilutions (2-fold or 4-fold) of 20 mM compound stock solutions were made in 100% DMSO, followed by an intermediate dilution step in water. These serial dilutions (10 μl) were then spotted onto test-plates that could be stored in the dark at 4° C. for a maximum period of 2 weeks. An adequate broad dose-range was included with 64 μM as the highest in-test concentration. […]
Lab note: class by IC50, see bin 0 (below 400 nM), bin 1 (400 nM to below 4000 nM), bin 2 (4000 nM or more)

Input smiles	Label
O=C1CCCc2cc(C3=NCc4c(F)cccc4-n4cccc43)ccc21	bin 0
Clc1cccc2c1CN=C(c1ccc3c(c1)CCO3)c1cccn1-2	bin 1
O=C1CCCc2cc(C3=NCc4c(Cl)cccc4-n4cccc43)ccc21	bin 0
CN1C(=O)C(C)(C)c2cc(C3=NCc4c(Cl)cccc4-n4cccc43)ccc21	bin 2
Fc1cc(F)c2c(c1)-n1cccc1C(c1ccc3c(c1)CCC(F)(F)O3)=NC2	bin 2

Query :: State the band of Clc1cccc2c1CN=C(c1ccc3c(c1)CCCC3)c1cccn1-2
Result :: bin 1

Query :: Which bin, given its IC50, does Clc1cc(Cl)c2c(c1)CN=C(c1ccc3c(c1)CCC3)c1cccn1-2 occupy?
Result :: bin 0

Query :: Entry O=C1OCc2ccc(C3=NCc4c(Cl)cccc4-n4cccc43)cc21 belongs to which category?
Result :: bin 2

From: patent US9040524B2
